# Tested on: Plasmodium berghei
# assay-name: Screen against P. berghei liver stage (PbLuc), transformed with Luciferase, at 10uM
# Type: functional, HepG2
# assay-context: tested at 10 uM
Screen size: about 69,000 compounds; about 8,600 (12%) showed an effect of 50% or more. The entries come from a sample that favours strong results as a whole.
Reported INHIBITION values are given for each entry in this list.
Express your answer in %, writing the number without its unit.

Briefly, INHIBITION measured for CCc1c(C(=O)O)nnn1-c1ccc(C)cc1C : 39.2

GET /value?item= CCn1nc2ccc(S(=O)(=O)N3CCSCC3)cn2c1=O &field=INHIBITION returns 7.92

So for O=C(NC1CCCN(c2ncccn2)C1)c1ccoc1 (configuration not stated) , the logged INHIBITION turned out to be -6.32

Entry CN(C)c1nc2c(c(N3CCCC3)n1)CCN(C(=O)c1ccc[nH]1)CC2 , INHIBITION reported as 34.5

Consider Cc1cc2cc(C(=O)N[C@@H]3CC[C@@H](N4CCCC4)[C@@H]3O)ccc2o1 . Its measured INHIBITION is 26.3
